target: T1, cynomolgus monkey BCMA (cynomolgus monkey, UniProt A0A2K5UD97 1-53); assay: SPR, IgG on chip, cyBCMA analyte
T1 construct: Soluble analyte in SPR; construct not described; also called cyBCMA; Cyno BCMA
T1 sequence (A0A2K5UD97 entry or part of it): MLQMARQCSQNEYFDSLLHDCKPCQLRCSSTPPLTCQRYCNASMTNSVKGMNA
Rule: koff below 0.0009 s⁻¹ gives 1. Equal to or above 0.0009 s⁻¹ gives -1.

BINDER	QUALITATIVE_LABEL
A02_Rd4_6nM_C19 (antibody, V domains shown, IgG) VH: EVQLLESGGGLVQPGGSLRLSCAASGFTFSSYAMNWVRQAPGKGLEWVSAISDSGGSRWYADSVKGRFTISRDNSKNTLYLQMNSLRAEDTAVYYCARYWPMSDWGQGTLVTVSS VL: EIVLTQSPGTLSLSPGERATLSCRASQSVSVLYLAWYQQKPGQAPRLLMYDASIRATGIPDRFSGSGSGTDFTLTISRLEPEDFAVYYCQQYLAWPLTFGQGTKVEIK	1
COMBO_Rd4_0.6nM_C21 (antibody, V domains shown, IgG) VH: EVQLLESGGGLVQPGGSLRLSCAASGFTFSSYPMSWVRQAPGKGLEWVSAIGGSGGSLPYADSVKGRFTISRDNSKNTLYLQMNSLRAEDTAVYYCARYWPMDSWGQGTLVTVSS VL: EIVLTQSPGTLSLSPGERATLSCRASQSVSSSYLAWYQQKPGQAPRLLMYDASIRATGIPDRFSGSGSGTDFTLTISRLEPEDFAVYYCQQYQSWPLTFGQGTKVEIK	1
COMBO_Rd4_6nM_C22 (antibody, V domains shown, IgG) VH: EVQLLESGGGLVQPGGSLRLSCAASGFTFSSYAMNWVRQAPGKGLEWVSACLDSGGSTYYADSVKGRFTISRDNSKNTLYLQMNSLRAEDTAVYYCARYWPMDSWGQGTLVTVSS VL: EIVLTQSPGTLSLSPGERATLSCRASQSVSSSYLAWYQQKPGQAPRLLMYDASIRATGIPDRFSGSGSGTDFTLTISRLEPEDFAVYYCQQYQGWPLTFGQGTKVEIK	-1
COMBO_Rd4_0.6nM_C02 (antibody, V domains shown, IgG) VH: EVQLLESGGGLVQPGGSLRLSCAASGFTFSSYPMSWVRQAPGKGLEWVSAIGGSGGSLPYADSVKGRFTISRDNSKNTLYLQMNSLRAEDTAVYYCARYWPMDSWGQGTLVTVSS VL: EIVLTQSPGTLSLSPGERATLSCRASIAVSSTYLAWYQQKPGQAPRLLMYDASIRATGIPDRFSGSGSGTDFTLTISRLEPEDFAVYYCQQYMVWPLTFGQGTKVEIK	1
